Measured values drawn from PubChem BioAssay for this set.

# key: entry, value: nuclei count
assay: inhibitors of E-selectin induction by TNFa, primary screen, imaging, HUVEC, immunofluorescence, MLSMR starter and 10KST1 sets (AID 487); conditions: HUVEC TNFalpha-induced E-selectin immunofluorescence imaging, at 2 µM; measured here: cell number, toxicity;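 further: 100% = median nuclei count of all wells on the same plate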

| MOLECULE | nuclei count (%) |
| --- | --- |
| Cc1ccc(S(=O)(=O)N2CCN(c3nc(C(C)C)c4c(c3C#N)CC(C)(C)OC4)CC2)cc1 | 120 |
| COC(=O)c1[nH]c2cc(OC)ccc2c1NC(=O)CN1CCC(C(N)=O)CC1 | 134 |
| OC(CCN1CCCCC1)(c1ccccc1)c1ccccc1 | 114 |
| COc1cccc(NC(=O)CSC2=C(C#N)C(c3ccco3)C3=C(CCCC3=O)N2)c1 (configuration not stated) | 101 |
| CCCOC(=O)CSC1=C(C#N)C(c2ccccc2OCC)C(C#N)C(=O)N1 (configuration not stated) | 101 |
| OCCCc1nc2ccccc2n1CCc1ccccc1 | 203 |
| CCCOc1cccc(C2C(C(=O)c3ccc(C)o3)=C(O)C(=O)N2CCCN(C)C)c1 (configuration not stated) | 77.5 |
| Fc1ccc(C2C3=C(Nc4ncnn42)c2ccccc2OC3c2ccncc2)cc1 (configuration not stated) | 136 |
| CCOC(=O)C1CCCN(c2nc3ccccc3nc2C(C#N)C(=O)OCCOC)C1 (configuration not stated) | 160 |
| COC(=O)C(NC(C)=O)(Nc1nc2ccc(S(C)(=O)=O)cc2s1)C(F)(F)F (configuration not stated) | 97.4 |
| CCN(CCCc1ccccc1)CCCc1ccccc1 | 132 |
| CC(=O)[C@H]1[C@H](C#N)C[C@H]2[C@@H]3CC=C4C[C@@H](O)CC[C@]4(C)[C@H]3CC[C@@]21C | 119 |
| c1ccc2c(c1)NC(c1ccncc1)n1c-2nc2ccccc21 (configuration not stated) | 108 |
| COc1cc2c(C(=O)N3CCN(c4ccccc4)CC3)c(C)oc2cc1Br | 139 |
| COC(=O)CN1C2(C#N)CCCCC2CC2CCCCC21C#N (configuration not stated) | 153 |
| CNCCC=C1c2ccccc2CCc2ccccc21 | 117 |
| COc1cc(N2C(=O)CSC23C(=O)Nc2ccccc23)cc(OC)c1OC (configuration not stated) | 105 |
| COc1ccccc1-n1cnc2cc(NS(=O)(=O)c3ccccc3)ccc21 | 108 |
| CCOCCN(C(=O)COC)c1cccc(OC)c1 | 124 |
| O/N=C/c1ccc(OCC(O)COc2ccc(/C=N/O)cc2)cc1 | 114 |
| CC(C)(C)c1cccc(/C=N/O)c1O | 140 |
| COCCOC(=O)C1=C(C)NC(SCC(=O)NC(C)(C)C)=C(C#N)C1c1ccco1 (configuration not stated) | 121 |
